System: Kleb. pneumo. SK 4200
Assay: MIC in vitro
Type: cell-based, Kleb. pneumoniae
Details: Klebsiella pneumoniae, Table 1; Kleb. pneumo. SK 4200; read-out: MIC in vitro
MEASUREMENT TYPE: MIC (µg/mL)

>>> number("O=C(Cn1cnnn1)NC1C(=O)N2C(C(=O)O)=C(CSc3nnnn3CS(=O)(=O)O)CSC12 (centres unmarked)")
0.4
>>> number("O=C(CSC(F)(F)F)NC1C(=O)N2C(C(=O)O)=C(CSc3nnnn3CS(=O)(=O)O)CSC12 (centres unmarked)")
0.4
>>> number("NS(=O)(=O)CCn1nnnc1SCC1=C(C(=O)O)N2C(=O)C(NC(=O)[C@H](O)c3ccccc3)[C@H]2SC1 (some centres unmarked)")
1.6
>>> number("O=C(O)C1=C(CSc2nnnn2CCCCCS(=O)(=O)O)CS[C@@H]2C(NC(=O)[C@H](O)c3ccccc3)C(=O)N12 (some centres unmarked)")
1.6
>>> number("O=C(O)C1=C(CSc2nnnn2CCS(=O)(=O)O)CS[C@@H]2C(NC(=O)[C@H](O)c3ccccc3)C(=O)N12 (some centres unmarked)")
0.8
>>> number("NS(=O)(=O)CCn1nnnc1SCC1=C(C(=O)O)N2C(=O)C(NC(=O)Cc3cccs3)[C@H]2SC1 (some centres unmarked)")
1.6
>>> number("O=C(O)C1=C(CSc2nnnn2CS(=O)(=O)O)CS[C@@H]2C(NC(=O)[C@H](O)c3ccccc3)C(=O)N12 (some centres unmarked)")
0.8

---

System: Kleb. pneumo. SK 1200
Assay: MIC in vitro
Type: cell-based, Kleb. pneumoniae
Conditions: Klebsiella pneumoniae, Table 1; Kleb. pneumo. SK 1200; read-out: MIC in vitro
Protocol: The compounds of Formula I have exceptional antibacterial activity against both Gram-positive and Gram-negative organisms. Minimum inhibitory concentrations (MIC's) ranged from 0.2 to <200 μg./ml. in in vitro testing.
Listing of recorded MIC by entry.
MEASUREMENT TYPE: MIC (µg/mL)

>>> number("O=C(O)C1=C(CSc2nnnn2CCCCCS(=O)(=O)O)CS[C@@H]2C(NC(=O)[C@H](O)c3ccccc3)C(=O)N12 (some centres unmarked)")
1.6
>>> number("O=C(Cc1cccs1)NC1C(=O)N2C(C(=O)O)=C(CSc3nnnn3CCS(=O)(=O)O)CS[C@H]12 (some centres unmarked)")
0.8
>>> number("O=C(CSC(F)(F)F)NC1C(=O)N2C(C(=O)O)=C(CSc3nnnn3CS(=O)(=O)O)CSC12 (centres unmarked)")
0.2
>>> number("O=C(Cn1cnnn1)NC1C(=O)N2C(C(=O)O)=C(CSc3nnnn3CS(=O)(=O)O)CSC12 (centres unmarked)")
0.2
>>> number("Cc1nnc(SCC2=C(C(=O)O)N3C(=O)[C@@H](NC(=O)Cn4cnnn4)[C@H]3SC2)s1 [XIII, Cefazolin, reference compound]")
0.8
>>> number("NS(=O)(=O)CCn1nnnc1SCC1=C(C(=O)O)N2C(=O)C(NC(=O)[C@H](O)c3ccccc3)[C@H]2SC1 (some centres unmarked)")
0.8
>>> number("NS(=O)(=O)CCn1nnnc1SCC1=C(C(=O)O)N2C(=O)C(NC(=O)CSC(F)(F)F)C2SC1 (centres unmarked)")
0.4

---

System: E. coli SK 12140
Experiment: MIC in vitro
Assay type: cell-based
Conditions: Escherichia coli, SK12140, read-out: MIC in vitro, Table 1; E. coli SK 12140
MEASUREMENT TYPE: MIC (µg/mL)

>>> number("O=C(Cc1cccs1)NC1C(=O)N2C(C(=O)O)=C(CSc3nnnn3CCS(=O)(=O)O)CS[C@H]12 (some centres unmarked) [VI]")
3.1
>>> number("NCc1ccccc1CC(=O)NC1C(=O)N2C(C(=O)O)=C(CSc3nnnn3CS(=O)(=O)O)CS[C@H]12 (some centres unmarked) [XI]")
0.2
>>> number("NS(=O)(=O)CCn1nnnc1SCC1=C(C(=O)O)N2C(=O)C(NC(=O)CSC(F)(F)F)C2SC1 (centres unmarked) [IX]")
0.8
>>> number("O=C(CSC(F)(F)F)NC1C(=O)N2C(C(=O)O)=C(CSc3nnnn3CS(=O)(=O)O)CSC12 (centres unmarked) [VII]")
0.4
>>> number("O=C(Cn1cnnn1)NC1C(=O)N2C(C(=O)O)=C(CSc3nnnn3CS(=O)(=O)O)CSC12 (centres unmarked) [X]")
0.4
